B1: CLCN6 (parent)
chain: FQSISLRKIQFNFPYFRSDRDKRD

# Variants of: B1
# assayText: protein stability index of a GFP-peptide fusion (GPS, HEK-293T) (PSI 1-6); higher = more stable;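 note: lentivirally expressed fusions sorted by FACS into six bins by GFP to DsRed ratio, PSI derived from sequencing read proportions per bin multiplied by bin number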
# cond: c terminus: a fixed tail appended
Give protein stability index for every item shown.

The following variants have reported results that may help.
S3N ... 1.82
R23Q ... 2.39
F16E ... 2.22

Quick one: give me protein stability index for each item below, same order please.
1. N12S
2. I9E
3. I9S
4. Y15D
5. Q10F

result:
1.65
1.98
2
2.31
1.52

Consider the following items and state reported protein stability index for each.
1. S5T
2. D21E
3. S3D

result:
1.42
1.1
2.19

Go through the items and report each one's protein stability index.
1. F11E
2. R7A
3. F16T
4. S5Y

result:
[2.02, 2.38, 1.9, 1.98]

// each variant listed below needs its protein stability index
1. F16P
2. F13D

result:
1.47
1.98
